Where these numbers come from: patent US12502393B2

Property: % Bound in human plasma; scope: individual compounds
assay explanation: Human plasma protein binding
Assay type: in vitro ADME
Give just the numeric value; % need not be written.

| compound | measured value |
| --- | --- |
| CCCc1nc(C)c2c(=O)[nH]c(-c3cc(S(=O)(=O)N4CCC([C@H](CO[N+](=O)[O-])O[N+](=O)[O-])CC4)ccc3OCC)nn12 | 99.80 |
| CCCc1nc(C)c2c(=O)[nH]c(-c3cc(S(=O)(=O)N4CCC(C(O)C(CO[N+](=O)[O-])CO[N+](=O)[O-])CC4)ccc3OCC)nn12 (stereo not drawn) | 99.99 |
| CCCc1nc(C)c2c(=O)[nH]c(-c3cc(S(=O)(=O)N4CCC(CC(C)(CO[N+](=O)[O-])CO[N+](=O)[O-])CC4)ccc3OCC)nn12 | 99.95 |

Identify measured % Bound in human plasma corresponding to CCCc1nc(C)c2c(=O)[nH]c(-c3cc(S(=O)(=O)N4CCC(CC(CO)CO[N+](=O)[O-])CC4)ccc3OCC)nn12 (stereo not drawn)
99.48

Please give the documented % Bound in human plasma of `CCCc1nc(C)c2c(=O)[nH]c(-c3cc(S(=O)(=O)N4CCC(C(O)(CCO[N+](=O)[O-])CCO[N+](=O)[O-])CC4)ccc3OCC)nn12`
99.77

Quick one: give measured % Bound in human plasma for CCCc1nc(C)c2c(=O)[nH]c(-c3cc(S(=O)(=O)N4CCC(C(O)(CCO)CCO[N+](=O)[O-])CC4)ccc3OCC)nn12 (stereo not drawn)
98.29
